Target: DPP4 (Homo sapiens, UniProt P27487)
Sequence (P27487 whole entry): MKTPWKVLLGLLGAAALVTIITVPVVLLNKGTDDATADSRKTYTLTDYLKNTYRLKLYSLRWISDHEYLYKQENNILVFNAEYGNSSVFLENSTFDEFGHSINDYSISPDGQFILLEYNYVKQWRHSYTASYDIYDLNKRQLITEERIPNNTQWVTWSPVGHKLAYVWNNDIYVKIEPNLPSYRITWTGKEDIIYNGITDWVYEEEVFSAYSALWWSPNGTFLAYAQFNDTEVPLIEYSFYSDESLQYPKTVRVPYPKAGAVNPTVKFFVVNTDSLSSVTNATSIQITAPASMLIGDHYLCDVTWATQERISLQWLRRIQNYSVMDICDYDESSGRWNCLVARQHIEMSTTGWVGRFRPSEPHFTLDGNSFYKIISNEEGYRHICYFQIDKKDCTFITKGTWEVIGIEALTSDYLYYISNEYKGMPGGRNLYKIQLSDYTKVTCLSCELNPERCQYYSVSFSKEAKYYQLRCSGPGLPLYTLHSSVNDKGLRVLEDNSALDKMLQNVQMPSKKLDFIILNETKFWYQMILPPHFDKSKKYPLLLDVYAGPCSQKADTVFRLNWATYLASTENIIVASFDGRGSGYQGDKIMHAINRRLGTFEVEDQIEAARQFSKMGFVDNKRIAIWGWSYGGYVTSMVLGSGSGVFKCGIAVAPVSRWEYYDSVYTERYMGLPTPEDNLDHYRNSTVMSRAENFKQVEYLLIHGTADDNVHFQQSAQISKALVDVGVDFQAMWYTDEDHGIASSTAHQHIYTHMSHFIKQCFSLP
Test: DPP4 inhibition, fluorogenic substrate H-Gly-Pro-AMC
Assay type: biochemical
Parameters: purchased R&D Systems
Conditions: recombinant human DPP4
Procedure: The compounds according to the present technology were evaluated in terms of the inhibitory effect on the activity of dipeptidyl peptidases including FAP by using a substrate producing fluorescent substances upon enzymatic decomposition. […] Fluorescence intensity was measured using a microplate reader (Flexstation3, Molecular Devices) under the wavelength condition exciting at 380 nm and reading the emission at 460 nm. […]
pIC50: −log10 of the molar value.
property label: pIC50

Solved cases (3 shown):
N#C[C@@H]1C[C@H](F)CN1C(=O)CN1CCC(Oc2cccc3ncccc23)CC1 5.14
CN(Cc1ccccc1)C(=O)c1cnc2cccc(NC3CCN(CC(=O)N4C[C@@H](F)C[C@H]4C#N)CC3)c2c1 5.41
N#C[C@@H]1C[C@H](F)CN1C(=O)CN1CCC(Oc2cccc3ncc(F)cc23)CC1 5.17

a = CN(Cc1ccccc1)C(=O)c1ccc(NC2CCN(CC(=O)N3C[C@@H](F)C[C@H]3C#N)CC2)c2cccnc12
b = CCN(c1cnc2ccccc2c1)C1CCN(CC(=O)N2C[C@@H](F)C[C@H]2C#N)CC1
Task: # min-compare on pIC50 between a and b Reply briefly: the label of your chosen item.
Output: b

P = N#C[C@@H]1C[C@H](F)CN1C(=O)CN1CC[C@@H](Nc2cnc3ncccc3c2)C1
Q = COc1ccnc2ccc(N[C@@H]3CCN(CC(=O)N4CCC[C@H]4C#N)C3)cc12
Task: Please state the entry with greater pIC50 among P and Q . Respond using the label that marks the chosen record.
Output: P

A = N#C[C@@H]1C[C@H](F)CN1C(=O)CN1CC[C@@H](Nc2ccc3nc(C(F)(F)F)ccc3c2)C1
B = Cc1cc(NC2CCN(CC(=O)N3C[C@@H](F)C[C@H]3C#N)CC2)cc2cccnc12
C = Cc1cc(N[C@@H]2CCN(CC(=O)N3CCC[C@H]3C#N)C2)cc2cccnc12
Task: List from greatest to least pIC50. Reply with the labels, ordered as the question asks.
Output: A, B, C

----------
target: recombinant human DPP8 (Homo sapiens, UniProt Q6V1X1); construct: purchased PBS Bioscience; test: DPP8 inhibition, fluorogenic substrate Z-Ala-Pro-AMC; type: biochemical; settings: recombinant human DPP8
Sequence (Q6V1X1 whole entry): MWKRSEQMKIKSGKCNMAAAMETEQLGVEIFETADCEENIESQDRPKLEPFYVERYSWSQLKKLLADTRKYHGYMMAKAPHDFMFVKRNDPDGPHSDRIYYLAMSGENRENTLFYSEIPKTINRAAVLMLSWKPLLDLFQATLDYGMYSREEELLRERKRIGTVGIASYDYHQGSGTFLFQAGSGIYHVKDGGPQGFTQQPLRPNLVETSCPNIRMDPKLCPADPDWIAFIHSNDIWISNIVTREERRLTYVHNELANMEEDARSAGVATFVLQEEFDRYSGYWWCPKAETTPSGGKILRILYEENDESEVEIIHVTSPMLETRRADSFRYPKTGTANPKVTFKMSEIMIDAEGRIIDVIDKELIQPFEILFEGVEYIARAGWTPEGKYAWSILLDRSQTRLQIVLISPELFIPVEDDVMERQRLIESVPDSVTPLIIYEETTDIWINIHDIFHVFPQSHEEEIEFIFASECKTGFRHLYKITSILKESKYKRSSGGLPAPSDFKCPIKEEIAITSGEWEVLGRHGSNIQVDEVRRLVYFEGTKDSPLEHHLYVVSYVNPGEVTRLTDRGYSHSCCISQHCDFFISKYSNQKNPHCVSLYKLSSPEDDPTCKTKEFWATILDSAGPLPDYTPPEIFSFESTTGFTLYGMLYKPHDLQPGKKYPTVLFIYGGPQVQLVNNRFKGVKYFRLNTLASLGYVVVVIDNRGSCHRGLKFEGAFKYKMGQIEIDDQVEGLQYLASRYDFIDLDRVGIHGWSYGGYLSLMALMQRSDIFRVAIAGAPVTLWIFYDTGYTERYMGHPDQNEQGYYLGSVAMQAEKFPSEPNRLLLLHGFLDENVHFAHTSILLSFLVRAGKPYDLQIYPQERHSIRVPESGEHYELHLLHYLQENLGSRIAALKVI
property label: IC50 (µM)

N#C[C@@H]1CCCN1C(=O)CN1CC[C@@H](Nc2ccc(OC(F)(F)F)c3ncccc23)C1 14.2
N#C[C@@H]1CCCN1C(=O)CN1CC[C@H](Nc2cccc3ncc(Cl)cc23)C1 23.4
N#C[C@@H]1C[C@H](F)CN1C(=O)CN1CCC(Nc2cccc3sccc23)CC1 11.5
Cc1cc(OC2CCN(CC(=O)N3C[C@@H](F)C[C@H]3C#N)CC2)c2ccccc2n1 11.7
COc1cc(N[C@H]2CCN(CC(=O)N3CCC[C@H]3C#N)C2)c2cccnc2c1 22.6

I = N#C[C@@H]1C[C@H](F)CN1C(=O)CN1CCC(Nc2cccc3c(Cl)nccc23)CC1
II = Cc1ccc2ncccc2c1N[C@H]1CCN(CC(=O)N2CCC[C@H]2C#N)C1
Task: // compare: I vs II , metric IC50, want the smaller Choose, then provide that item's label.
Output: I
(I: 2.81 µM, II: 74.3 µM)

----------
molecular target: UniProtKB P27487; assay: DPP4 inhibition, fluorogenic substrate H-Gly-Pro-AMC; assay type: biochemical; set-up: purchased R&D Systems; conditions: recombinant human DPP4
property label: IC50 (µM)

COc1ccc2nccc(N[C@@H]3CCN(CC(=O)N4C[C@@H](F)C[C@H]4C#N)C3)c2c1 15.2
N#C[C@@H]1C[C@H](F)CN1C(=O)CN1CCC(Nc2ccc(OC(F)(F)F)c3ncccc23)CC1 2.66
N#C[C@@H]1C[C@H](F)CN1C(=O)CN1CCC(Nc2ccc(C(=O)Nc3cccnc3)c3ncccc23)CC1 2.16

a = CN(c1cc(F)cc2ncccc12)[C@H]1CCN(CC(=O)N2C[C@@H](F)C[C@H]2C#N)C1
b = N#C[C@@H]1CCCN1C(=O)CN1CC[C@@H](Nc2cc(Cl)c3ncccc3c2)C1
c = N#C[C@@H]1CCCN1C(=O)CN1CCC(Oc2ccnc3ccc(F)cc23)CC1
Task: Rank the 3 compounds: largest IC50 first, smallest last. Reply with the item labels sorted in the order that was asked for.
Output: c, b, a

----------
target: recombinant human DPP9 (Homo sapiens, UniProt Q86TI2); construct: purchased R&D Systems; test: DPP9 inhibition, fluorogenic substrate H-Gly-Pro-AMC; type: biochemical; conditions: 25° C., H-Gly-Pro-AMC substrate
Sequence (Q86TI2 whole entry): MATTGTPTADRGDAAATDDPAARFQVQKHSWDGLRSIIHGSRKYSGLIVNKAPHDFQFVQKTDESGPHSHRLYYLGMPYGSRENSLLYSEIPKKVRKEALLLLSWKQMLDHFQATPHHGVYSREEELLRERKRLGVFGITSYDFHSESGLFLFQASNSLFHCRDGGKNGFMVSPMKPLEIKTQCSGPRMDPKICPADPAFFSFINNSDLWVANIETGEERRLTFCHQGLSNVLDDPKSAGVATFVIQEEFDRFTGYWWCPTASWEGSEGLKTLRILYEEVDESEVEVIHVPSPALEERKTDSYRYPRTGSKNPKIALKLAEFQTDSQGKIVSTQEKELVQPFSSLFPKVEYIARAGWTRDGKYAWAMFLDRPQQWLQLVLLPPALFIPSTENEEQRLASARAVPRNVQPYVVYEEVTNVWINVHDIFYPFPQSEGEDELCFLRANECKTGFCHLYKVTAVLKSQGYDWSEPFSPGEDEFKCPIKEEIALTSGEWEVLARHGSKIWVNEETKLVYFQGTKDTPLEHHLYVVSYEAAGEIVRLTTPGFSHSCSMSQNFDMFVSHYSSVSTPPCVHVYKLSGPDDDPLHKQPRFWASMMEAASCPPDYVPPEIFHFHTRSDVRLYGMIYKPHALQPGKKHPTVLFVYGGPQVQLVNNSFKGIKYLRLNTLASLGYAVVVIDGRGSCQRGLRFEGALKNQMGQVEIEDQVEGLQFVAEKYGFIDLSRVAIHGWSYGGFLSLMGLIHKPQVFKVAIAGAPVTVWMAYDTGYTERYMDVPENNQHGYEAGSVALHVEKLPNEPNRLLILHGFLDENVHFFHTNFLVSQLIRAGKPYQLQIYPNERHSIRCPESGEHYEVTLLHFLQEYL
pIC50: −log10 of the molar value.
property label: pIC50

See these solved cases before continuing.
molecule	system tested	pIC50
COc1ccc2ncc(N(C)[C@H]3CCN(CC(=O)N4CCC[C@H]4C#N)C3)cc2c1 [Example 152]	recombinant human DPP9 (Homo sapiens, UniProt Q86TI2)	4.54
CN(c1cccc2ncccc12)[C@H]1CCN(CC(=O)N2CCC[C@H]2C#N)C1 [Example 144]	recombinant human DPP9 (Homo sapiens, UniProt Q86TI2)	4.62
N#C[C@@H]1CC(F)(F)CN1C(=O)CN1CC[C@H](Oc2ccc(Cl)c3cccnc23)C1 [Example 109]	recombinant human DPP9 (Homo sapiens, UniProt Q86TI2)	5.35

P = COc1cc2nccc(OC3CCN(CC(=O)N4C[C@@H](F)C[C@H]4C#N)CC3)c2cc1OC [Example 130]
Q = CN(c1cccc2cnccc12)[C@H]1CCN(CC(=O)N2CCC[C@H]2C#N)C1 [Example 148]
R = N#C[C@@H]1C[C@H](F)CN1C(=O)CN1CC[C@H](NC(=O)c2coc3cc(F)ccc23)C1 [Example 29]
Task: Rank items: key pIC50, increasing. When ranking, write the labels in the order the request describes.
Output: Q, R, P

----------
target: Recombinant human FAP (Homo sapiens); construct: purchased R&D systems; experiment: FAP inhibition, fluorogenic substrate Z-Gly-Pro-AMC; assay type: biochemical; details: recombinant human FAP, substrate Z-Gly-Pro-AMC
Sequence (Q12884 whole entry): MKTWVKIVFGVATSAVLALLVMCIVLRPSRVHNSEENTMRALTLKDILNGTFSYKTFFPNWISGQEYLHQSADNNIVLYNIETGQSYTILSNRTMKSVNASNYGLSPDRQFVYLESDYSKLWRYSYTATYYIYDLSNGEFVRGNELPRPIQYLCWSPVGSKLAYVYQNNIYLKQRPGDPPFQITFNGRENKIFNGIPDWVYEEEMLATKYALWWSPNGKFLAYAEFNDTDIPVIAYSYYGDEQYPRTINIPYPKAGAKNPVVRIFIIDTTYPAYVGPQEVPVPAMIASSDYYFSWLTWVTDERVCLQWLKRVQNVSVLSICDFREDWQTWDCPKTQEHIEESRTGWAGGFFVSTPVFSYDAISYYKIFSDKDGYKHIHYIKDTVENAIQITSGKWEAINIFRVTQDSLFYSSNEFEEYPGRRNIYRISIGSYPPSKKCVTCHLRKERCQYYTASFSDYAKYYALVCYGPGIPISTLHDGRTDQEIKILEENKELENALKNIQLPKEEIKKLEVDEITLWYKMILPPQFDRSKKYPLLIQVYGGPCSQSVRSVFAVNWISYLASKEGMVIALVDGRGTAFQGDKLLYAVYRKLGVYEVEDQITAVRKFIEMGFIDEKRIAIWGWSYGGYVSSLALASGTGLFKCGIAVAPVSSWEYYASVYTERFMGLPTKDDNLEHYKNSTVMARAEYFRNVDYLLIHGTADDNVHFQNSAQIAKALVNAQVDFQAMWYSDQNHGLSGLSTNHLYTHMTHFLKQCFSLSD
pIC50: −log10 of the molar value.
property label: pIC50

Guide cases for pIC50, answers given:
N#C[C@@H]1C[C@H](F)CN1C(=O)CN1CCC(Oc2ccnc3ccc(C(F)(F)F)cc23)CC1 8.60
N#C[C@@H]1C[C@H](F)CN1C(=O)CN1CCC(Oc2nccc3ccccc23)CC1 8.09
N#C[C@@H]1C[C@H](F)CN1C(=O)CN1CCC(Nc2cccc3ncc(Cl)cc23)CC1 8.59
Cc1ccc2nccc(OC3CCN(CC(=O)N4C[C@@H](F)C[C@H]4C#N)CC3)c2c1 8.92
N#C[C@@H]1CCCN1C(=O)CN1CCC(NC(=O)c2cccc3cccnc23)CC1 7.16
N#C[C@@H]1CCCN1C(=O)CN1CC[C@H](Nc2ccnc3c(C(F)(F)F)cccc23)C1 8.89

I = N#C[C@@H]1C[C@H](F)CN1C(=O)CN1CCC(Nc2cccc3c(Cl)nccc23)CC1
II = N#C[C@@H]1C[C@H](F)CN1C(=O)CN1CC[C@@H](Nc2cccc3ncccc23)C1
III = N#Cc1cnc2cccc(N[C@H]3CCN(CC(=O)N4CCC[C@H]4C#N)C3)c2c1
IV = CN(c1cccc2ncccc12)C1CCN(CC(=O)N2CCC[C@H]2C#N)CC1
V = COc1ccc2ncccc2c1N[C@H]1CCN(CC(=O)N2CCC[C@H]2C#N)C1
Task: Hello, I need these entries ordered by pIC50, highest reading first. Thanks! List the labels, following the order given in the request.
Output: III, II, I, V, IV
(III: 8.89, II: 8.68, I: 8.47, V: 7.70, IV: 7.17)

1 = N#C[C@@H]1C[C@H](F)CN1C(=O)CN1CCC(Nc2ccnc3c(C(F)(F)F)cccc23)CC1
2 = CN(c1cncc2ccoc12)C1CCN(CC(=O)N2CCC[C@H]2C#N)CC1
3 = N#C[C@@H]1C[C@H](F)CN1C(=O)CN1CC[C@@H](Nc2ccc3ncccc3c2)C1
4 = N#C[C@@H]1CCCN1C(=O)CN1CC[C@H](Nc2ccc(OC(F)(F)F)c3ncccc23)C1
5 = COc1ccc2ncccc2c1N[C@H]1CCN(CC(=O)N2C[C@@H](F)C[C@H]2C#N)C1
Task: Which order do these items take when sorted by rising pIC50? List them. Show the ranking through the labels, in the order asked for.
Output: 2, 5, 1, 3, 4
(2: 7.50, 5: 8.24, 1: 8.57, 3: 8.85, 4: 9.05)

----------
target: recombinant human PREP (Homo sapiens); construct: purchased R&D System; assay: PREP inhibition, fluorogenic substrate Z-Gly-Pro-AMC; format: biochemical; conditions: Inhibitory Activity (IC50, nM) PREP, 25° C., Z-Gly-Pro-AMC substrate
Sequence (P48147 whole entry): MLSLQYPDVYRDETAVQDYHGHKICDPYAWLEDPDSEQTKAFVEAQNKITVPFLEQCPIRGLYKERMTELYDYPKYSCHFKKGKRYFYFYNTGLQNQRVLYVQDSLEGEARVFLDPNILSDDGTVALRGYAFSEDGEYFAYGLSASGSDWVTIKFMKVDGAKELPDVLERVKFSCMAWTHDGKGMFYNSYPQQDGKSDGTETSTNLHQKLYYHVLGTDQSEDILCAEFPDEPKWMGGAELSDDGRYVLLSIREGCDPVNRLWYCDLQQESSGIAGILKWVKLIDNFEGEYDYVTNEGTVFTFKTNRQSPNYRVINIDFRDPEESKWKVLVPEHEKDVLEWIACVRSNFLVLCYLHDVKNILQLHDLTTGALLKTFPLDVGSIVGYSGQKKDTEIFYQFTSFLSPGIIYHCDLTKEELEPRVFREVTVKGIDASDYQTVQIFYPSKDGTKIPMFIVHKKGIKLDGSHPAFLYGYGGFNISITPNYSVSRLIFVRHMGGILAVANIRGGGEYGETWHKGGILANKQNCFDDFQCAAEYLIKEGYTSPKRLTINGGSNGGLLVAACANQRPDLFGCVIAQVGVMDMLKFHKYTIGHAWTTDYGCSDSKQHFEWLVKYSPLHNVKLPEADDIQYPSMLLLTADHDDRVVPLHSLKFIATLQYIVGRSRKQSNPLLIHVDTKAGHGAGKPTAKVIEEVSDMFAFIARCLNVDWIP
property label: IC50 (nM)

Sample records with IC50:
N#C[C@@H]1CCCN1C(=O)CN1CCC(Nc2ccnc3ccccc23)CC1 4170
COc1cccc2cc(N(C)[C@H]3CCN(CC(=O)N4CCC[C@H]4C#N)C3)cnc12 970
N#C[C@@H]1CCCN1C(=O)CN1CC[C@H](NC(=O)c2coc3cc(O)ccc23)C1 8360
CN(c1ccc2ncccc2c1)[C@H]1CCN(CC(=O)N2CCC[C@H]2C#N)C1 2690
N#C[C@@H]1CCCN1C(=O)CN1CC[C@H](NC(=O)c2csc3ccccc23)C1 3190
N#C[C@@H]1C[C@H](F)CN1C(=O)CN1CCC(Oc2ccnc3ccc(Cl)cc23)CC1 621

A = N#C[C@@H]1CCCN1C(=O)CN1CC[C@H](NC(=O)c2ccc3ccoc3c2)C1
B = CN(c1cccc2cnccc12)[C@H]1CCN(CC(=O)N2CCC[C@H]2C#N)C1
C = Cc1cnc2cccc(NC3CCN(CC(=O)N4CCC[C@H]4C#N)CC3)c2c1
D = Cc1c(N(C)[C@H]2CCN(CC(=O)N3CCC[C@H]3C#N)C2)cnc2ccccc12
E = N#C[C@@H]1CCCN1C(=O)CN1CCC(Oc2ccnc3ccccc23)CC1
Task: Ascending by IC50, please: list the compounds accordingly. Please list each label once, in the requested order.
Output: E, D, B, A, C
